Attribution: ChEMBL document CHEMBL2218924

Target: Ribosomal protein S6 kinase alpha-2 (Homo sapiens) (UniProt Q15349)
Sequence (Q15349 whole entry): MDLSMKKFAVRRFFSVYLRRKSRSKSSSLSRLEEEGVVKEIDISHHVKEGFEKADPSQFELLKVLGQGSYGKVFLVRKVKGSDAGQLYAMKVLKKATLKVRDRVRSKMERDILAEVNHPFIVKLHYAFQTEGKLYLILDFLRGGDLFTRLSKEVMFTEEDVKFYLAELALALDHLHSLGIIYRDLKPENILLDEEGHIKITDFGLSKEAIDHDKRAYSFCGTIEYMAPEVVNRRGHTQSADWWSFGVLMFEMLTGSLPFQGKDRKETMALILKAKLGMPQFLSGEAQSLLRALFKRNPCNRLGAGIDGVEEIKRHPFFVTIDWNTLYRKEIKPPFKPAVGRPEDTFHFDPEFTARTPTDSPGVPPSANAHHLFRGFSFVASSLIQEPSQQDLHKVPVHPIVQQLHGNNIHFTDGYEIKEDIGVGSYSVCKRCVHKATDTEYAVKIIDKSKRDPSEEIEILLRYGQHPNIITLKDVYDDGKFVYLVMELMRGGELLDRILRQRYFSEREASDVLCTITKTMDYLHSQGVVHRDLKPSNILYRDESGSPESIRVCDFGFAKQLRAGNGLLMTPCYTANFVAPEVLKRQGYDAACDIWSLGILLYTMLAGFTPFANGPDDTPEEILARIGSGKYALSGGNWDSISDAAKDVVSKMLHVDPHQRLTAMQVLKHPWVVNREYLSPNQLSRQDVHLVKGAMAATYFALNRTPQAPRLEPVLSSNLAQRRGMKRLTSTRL
Conditions: at 10 µM

# smilesEntry, targetDesc, residual activity
rows = [
    ("CC(C)n1cnc2c(NCc3ccccc3)nc(NCCCO)nc21", "Ribosomal protein S6 kinase alpha-2 (Homo sapiens) (UniProt Q15349)", "72%"),
    ("c1ccc(-c2n[nH]cc2-c2ccnc3ccccc23)nc1", "Ribosomal protein S6 kinase alpha-2 (Homo sapiens) (UniProt Q15349)", "95%"),
    ("CO[C@H]1[C@@H](OC)C[C@H](C)[C@@H](OC)C2=CC(=O)C=C(NC(=O)/C(C)=C/C=C/[C@H](OC)[C@@H](OC(N)=O)/C(C)=C/[C@@H]1C)C2=O", "Ribosomal protein S6 kinase alpha-2 (Homo sapiens) (UniProt Q15349)", "104%"),
    ("Cn1cnc2cc3c(Nc4cccc(Br)c4)ncnc3cc21", "Ribosomal protein S6 kinase alpha-2 (Homo sapiens) (UniProt Q15349)", "70%"),
    ("COc1cc2ncnc(Nc3ccc(NC(=O)c4ccccc4)cc3)c2cc1OC", "Ribosomal protein S6 kinase alpha-2 (Homo sapiens) (UniProt Q15349)", "69%"),
    ("CNc1cc2c(Nc3cccc(Br)c3)ncnc2cn1", "Ribosomal protein S6 kinase alpha-2 (Homo sapiens) (UniProt Q15349)", "38%"),
    ("O=C1Nc2ccc(Br)cc2/C1=C\\c1cc2c([nH]1)CCCC2", "Ribosomal protein S6 kinase alpha-2 (Homo sapiens) (UniProt Q15349)", "76%"),
    ("COc1cccc(-c2cc(=O)c3ccccc3o2)c1N", "Ribosomal protein S6 kinase alpha-2 (Homo sapiens) (UniProt Q15349)", "101%"),
    ("Oc1ccc(Nc2nc(-c3ccc(Cl)cc3)cs2)cc1", "Ribosomal protein S6 kinase alpha-2 (Homo sapiens) (UniProt Q15349)", "80%"),
    ("CC#CC(=O)Nc1cc2c(Nc3ccc(F)c(Cl)c3)ncnc2cn1", "Ribosomal protein S6 kinase alpha-2 (Homo sapiens) (UniProt Q15349)", "96%"),
    ("N#C/C(=C(\\N)Sc1ccc(N)cc1)c1ccccc1C(F)(F)F", "Ribosomal protein S6 kinase alpha-2 (Homo sapiens) (UniProt Q15349)", "48%"),
    ("CCC(=O)Nc1ccc2ncnc(Nc3cccc(Br)c3)c2c1", "Ribosomal protein S6 kinase alpha-2 (Homo sapiens) (UniProt Q15349)", "71%"),
    ("Oc1c2ccccc2c2c3c(cccc13)N=N2", "Ribosomal protein S6 kinase alpha-2 (Homo sapiens) (UniProt Q15349)", "22%"),
    ("c1ccc2c(-c3ccncc3)c[nH]c2c1", "Ribosomal protein S6 kinase alpha-2 (Homo sapiens) (UniProt Q15349)", "48%"),
    ("Cc1cccc(-c2[nH]c(C(C)(C)C)nc2-c2ccc3c(c2)OCO3)n1", "Ribosomal protein S6 kinase alpha-2 (Homo sapiens) (UniProt Q15349)", "97%"),
    ("Cn1cc(/C=C2\\C(=O)Nc3ccc(S(N)(=O)=O)cc32)c2ccccc21", "Ribosomal protein S6 kinase alpha-2 (Homo sapiens) (UniProt Q15349)", "0%"),
    ("Nc1nc(Nc2ccc(S(N)(=O)=O)cc2)nn1C(=S)Nc1c(F)cccc1F", "Ribosomal protein S6 kinase alpha-2 (Homo sapiens) (UniProt Q15349)", "-1%"),
    ("O=[N+]([O-])c1ccc(-c2nc(-c3ccc(F)cc3)c(-c3ccncc3)[nH]2)cc1", "Ribosomal protein S6 kinase alpha-2 (Homo sapiens) (UniProt Q15349)", "97%"),
    ("COc1cc2ncnc(Nc3ccc(Oc4ccccc4)cc3)c2cc1OC", "Ribosomal protein S6 kinase alpha-2 (Homo sapiens) (UniProt Q15349)", "73%"),
    ("Cc1ccc(S(=O)(=O)/C=C/C#N)cc1", "Ribosomal protein S6 kinase alpha-2 (Homo sapiens) (UniProt Q15349)", "109%"),
    ("Cc1nc(-c2ccccc2)c(-c2ccncc2)o1", "Ribosomal protein S6 kinase alpha-2 (Homo sapiens) (UniProt Q15349)", "92%"),
    ("Cc1nc2cc3nc(-c4cccs4)cnc3cc2n1C", "Ribosomal protein S6 kinase alpha-2 (Homo sapiens) (UniProt Q15349)", "83%"),
    ("O=Nc1c(-c2c(O)[nH]c3ccccc23)[nH]c2ccccc12", "Ribosomal protein S6 kinase alpha-2 (Homo sapiens) (UniProt Q15349)", "4%"),
]
